The measurements presented in this section are drawn from the NIST ThermoML archive (doi:10.1016/j.fluid.2018.11.011).

assay: activity coefficient (dimensionless); of the first substance listed, at infinite dilution; xn = mol fraction of the nth substance listed; settings: 353 K; 101.33 kPa; Liquid; Chromatography; x1 = 0
Label label 1 when activity coefficient is at or above 0.5; otherwise label label 0.

[[record]]
compound = "CO [methanol] + CCCCCCCCCC[N+](C)(C)CCCCCCCCCC.[O-][Cl+3]([O-])([O-])[O-]"
answerlabel = "label 0"


Inquiry: Dear colleague, could you confirm whether CCCCCCC [heptane] + CCCCCCCCCC[N+](C)(C)CCCCCCCCCC.[O-][Cl+3]([O-])([O-])[O-] has activity coefficient at or above 0.5?
Reply text: label 1

Inquiry: Queued: C1CCOC1 [tetrahydrofuran] + CCCCCCCCCC[N+](C)(C)CCCCCCCCCC.[O-][Cl+3]([O-])([O-])[O-]
Reply text: label 1

Inquiry: Likewise for c1ccccc1 [benzene] + CCCCCCCCCC[N+](C)(C)CCCCCCCCCC.F[B-](F)(F)F ?
Reply text: label 1

Inquiry: Moving on to C=CCCC [1-pentene] + CCCCCCCCCC[N+](C)(C)CCCCCCCCCC.F[B-](F)(F)F
Reply text: label 1

Inquiry: CCO [ethanol] + CCCCCCCCCC[N+](C)(C)CCCCCCCCCC.F[B-](F)(F)F , same question.
Reply text: label 0

Inquiry: Next up: C=CCCCCCC [oct-1-ene] + CCCCCCCCCC[N+](C)(C)CCCCCCCCCC.[O-][Cl+3]([O-])([O-])[O-]
Reply text: label 1

Inquiry: Same again, this time with ClC(Cl)Cl [trichloromethane] + CCCCCCCCCC[N+](C)(C)CCCCCCCCCC.F[B-](F)(F)F
Reply text: label 0
